Values compiled from ChEMBL document CHEMBL1141395.

# ASSAY REMARKS: Clearance in Sprague-Dawley rat at 2 mg/kg, iv
# Type: ADME, organism-based
# Set-up: dose 2 mg/kg, route intravenous
# STUDY CONDITIONS: in vivo
PROPERTY NAME: clearance (mL/min/kg)

Recorded results for 2 compounds are shown here.
{"columns": ["COMPOUND", "PROPERTY NAME", "EXPERIMENTAL VALUE"],
 "data": [
  ["C[C@H](NC1=NC(=O)C(C)(C(F)(F)F)S1)c1ccccc1F (stereo not given in full)", "clearance", 8.35],
  ["CC(C)[C@]1(C)SC(N[C@@H](C)c2ccccc2F)=NC1=O", "clearance", 42.8]
]}

(1) C[C@H](NC1=NC(=O)C(C)(C(C)(C)F)S1)c1ccccc1F (stereo not given in full)
(2) C[C@H](NC1=NC(=O)[C@](C)(C(F)(F)F)S1)c1ccccc1F
Prompt: Of the two listed items, 1 and 2 , which carries the larger clearance figure? Kindly state the label of the option you pick.
Completion: 1
(1: 14.8 mL/min/kg, 2: 9.6 mL/min/kg)
